- TARGET OR SYSTEM: human SGLT1 (Homo sapiens)
- Construct: expressed in transfected cells
- Sequence (P13866 whole entry): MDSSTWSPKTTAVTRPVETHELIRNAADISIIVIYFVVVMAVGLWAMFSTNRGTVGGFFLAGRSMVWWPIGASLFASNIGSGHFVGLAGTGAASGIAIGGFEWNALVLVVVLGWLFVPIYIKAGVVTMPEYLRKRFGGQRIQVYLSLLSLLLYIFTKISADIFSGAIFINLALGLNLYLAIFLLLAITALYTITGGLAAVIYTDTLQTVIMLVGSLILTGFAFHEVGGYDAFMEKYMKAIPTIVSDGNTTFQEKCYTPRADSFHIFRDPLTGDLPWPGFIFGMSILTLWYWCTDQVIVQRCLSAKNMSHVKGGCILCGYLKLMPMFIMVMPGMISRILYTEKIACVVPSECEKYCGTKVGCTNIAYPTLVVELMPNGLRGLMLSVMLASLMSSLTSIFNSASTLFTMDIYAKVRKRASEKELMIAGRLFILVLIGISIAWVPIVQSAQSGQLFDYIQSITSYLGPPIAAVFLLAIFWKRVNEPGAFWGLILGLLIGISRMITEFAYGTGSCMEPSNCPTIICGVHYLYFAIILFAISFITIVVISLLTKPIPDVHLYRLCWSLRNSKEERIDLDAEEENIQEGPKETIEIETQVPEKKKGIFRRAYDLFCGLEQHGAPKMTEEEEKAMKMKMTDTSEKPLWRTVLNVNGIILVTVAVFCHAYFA
- ASSAY EXPLANATION: SGLT1 in vitro assay: Na-dependent 14C-AMG uptake in CHO-K1 cells stably expressing human SGLT1
- Type: cell-based
- CONDITIONS: CHO-K1 cells stably expressing human SGLT1; 14C-AMG uptake; compounds of formula (I) where R0 is fluoro
pIC50: −log10 of the molar value.
EXPERIMENTAL ENDPOINT: pIC50

Query: Would you kindly share the measured pIC50 for "CCc1ccc(Cc2cc([C@@H]3O[C@H](CO)C(F)(F)[C@H](O)[C@H]3O)c(O)c3c2OCC3)cc1" ?
Result: 6.84

(P) OC[C@H]1O[C@@H](c2cc(Cc3ccc4c(c3)OCCO4)c3c(c2O)OCC3)[C@H](O)[C@@H](O)C1(F)F
(Q) CCc1cc(OC)c([C@@H]2O[C@H](CO)C(F)(F)[C@H](O)[C@H]2O)cc1Cc1ccc(OC)cc1
Query: Please state the entry with greater pIC50 among P and Q . // caller expects the label of the chosen entry
Result: P
(P: 6.80, Q: 6.20)

FYI, the data here is from patent US20210238170A1.
